test: qHTS assay to identify small molecule antagonists of the peroxisome proliferator-activated receptor delta (PPARd) signaling pathway - cell viability counter screen (AID 743213); details: PPARd-bla HEK293H viability, CellTiter-Glo luminescence, 17 h; series mostly up to 62 µM; note: nearly all actives have a fitted effect of over 50% in size
Inconclusive results are not listed. The source made the active and inactive calls. Calls come from the whole dose curve; as a rule, active = well fitted cell-killing curve with a large enough effect in the repeat runs; inconclusive = weak or mixed curves; inactive = no such curve, though single readings can be large or run the other way.
Mark one answer only. Choices: active, inactive

{"compound": "CN(C)CCOC1=Cc2ccccc2Sc2ccc(Cl)cc21", "category.label": "active"}
{"compound": "O=C(c1ccc(O)cc1)c1ccc(Cl)cc1", "category.label": "inactive"}
{"compound": "CC(=O)Oc1ccc(C(=C2CCCCC2)c2ccc(OC(C)=O)cc2)cc1", "category.label": "inactive"}

Which outcome did this test record for the compound CCCCC(CC)CNCC(CC)CCCC (stereo not given) ?
inactive

Which outcome did this test record for the compound COCC(O)CO (stereo not given) ?
inactive

Which outcome did this test record for the compound CC(C)CCCCCOC(=O)CCCCC(=O)OCCCCCC(C)C ?
inactive

###

biological target: Voltage-gated inwardly rectifying potassium channel KCNH2 (Homo sapiens) (UniProt Q12809); experiment: Human Ether-a-go-go-Related Gene (hERG) channel small molecule antagonists: fluorescence cell-based qHTS assay (AID 1671200); settings: hERG-U2OS cells, FluxOR thallium flux fluorescence; series mostly up to 76.8 µM;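 note: hERG-expressing U2OS cells given a thallium stimulus after FluxOR II dye loading; nearly all actives have a fitted effect of over 50% in size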
Sequence (Q12809 whole entry, looked up): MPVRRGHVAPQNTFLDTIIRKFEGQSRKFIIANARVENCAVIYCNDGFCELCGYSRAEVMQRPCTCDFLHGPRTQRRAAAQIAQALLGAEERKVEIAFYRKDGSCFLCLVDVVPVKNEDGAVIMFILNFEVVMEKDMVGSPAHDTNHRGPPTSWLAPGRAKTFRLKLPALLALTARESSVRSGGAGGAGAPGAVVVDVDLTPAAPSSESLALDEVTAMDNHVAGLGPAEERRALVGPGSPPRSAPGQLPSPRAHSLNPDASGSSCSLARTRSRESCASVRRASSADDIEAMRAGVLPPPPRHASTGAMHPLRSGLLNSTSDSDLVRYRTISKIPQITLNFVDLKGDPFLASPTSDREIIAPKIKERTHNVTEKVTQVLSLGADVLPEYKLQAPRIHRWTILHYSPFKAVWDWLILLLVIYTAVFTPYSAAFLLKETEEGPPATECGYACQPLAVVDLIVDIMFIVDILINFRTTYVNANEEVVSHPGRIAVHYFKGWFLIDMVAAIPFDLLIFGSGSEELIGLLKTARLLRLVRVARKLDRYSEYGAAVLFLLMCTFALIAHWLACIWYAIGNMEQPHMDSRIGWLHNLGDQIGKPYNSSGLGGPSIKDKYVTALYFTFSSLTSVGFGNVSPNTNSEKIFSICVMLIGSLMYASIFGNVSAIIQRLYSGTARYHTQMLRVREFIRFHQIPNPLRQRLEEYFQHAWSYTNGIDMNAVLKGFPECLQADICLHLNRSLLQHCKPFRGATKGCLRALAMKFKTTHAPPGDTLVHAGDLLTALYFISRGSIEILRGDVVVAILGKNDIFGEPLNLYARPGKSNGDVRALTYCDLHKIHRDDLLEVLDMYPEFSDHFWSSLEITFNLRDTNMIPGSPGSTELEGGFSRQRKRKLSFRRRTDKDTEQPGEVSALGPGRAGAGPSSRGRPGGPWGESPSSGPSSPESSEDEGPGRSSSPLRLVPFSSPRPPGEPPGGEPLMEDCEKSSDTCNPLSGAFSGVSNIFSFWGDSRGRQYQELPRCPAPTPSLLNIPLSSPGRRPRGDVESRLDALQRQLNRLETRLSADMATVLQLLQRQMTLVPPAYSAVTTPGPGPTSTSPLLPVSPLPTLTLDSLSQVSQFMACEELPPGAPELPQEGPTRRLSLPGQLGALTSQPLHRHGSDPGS
Results filed as inconclusive are left out. The source made the active and inactive calls. Calls come from the whole dose curve; as a rule, active = well fitted inhibition curve with a large enough effect in the repeat runs; inconclusive = weak or mixed curves; inactive = flat fitted curve, though single readings scatter.
Mark one answer only. Choices: yes = active, no = inactive

Recorded results for 3 compounds are shown here.
{"compound": "COc1ccc(C(=O)c2cccc(O)c2)c(OC)c1", "test.system": "Voltage-gated inwardly rectifying potassium channel KCNH2 (Homo sapiens) (UniProt Q12809)", "category.label": "no"}
{"compound": "N#C/C(=C1\\SCC(c2ccccc2Cl)S1)n1ccnc1 (centres undefined)", "test.system": "Voltage-gated inwardly rectifying potassium channel KCNH2 (Homo sapiens) (UniProt Q12809)", "category.label": "no"}
{"compound": "O=Cc1c(Cl)cccc1Cl", "test.system": "Voltage-gated inwardly rectifying potassium channel KCNH2 (Homo sapiens) (UniProt Q12809)", "category.label": "no"}

Which outcome did this test record for the compound CC(C)=CC=O ?
no

Which outcome did this test record for the compound CN1C(=O)CC(C)(c2ccccc2)C1=O (centres undefined) ?
no

Which outcome did this test record for the compound CC(C)CCCCCOC(=O)CCCCC(=O)OCCCCCC(C)C ?
no

Which outcome did this test record for the compound CCOC(=O)OCC ?
no

Which outcome did this test record for the compound CCCCCCCCCCCC[N+](C)(C)CC(=O)[O-] ?
no

Which outcome did this test record for the compound CC#N ?
no

Which outcome did this test record for the compound OCCSc1ccccc1 ?
no

Which outcome did this test record for the compound CC(C)(C)C(=O)O ?
no

Which outcome did this test record for the compound C[Si](NC1CCCCC1)(NC1CCCCC1)NC1CCCCC1 ?
no

###

assay: Human pregnane X receptor (PXR) small molecule agonists, qHTS cell viability counter screen (AID 1346977); settings: PXR-Luc HepG2 viability, CellTiter-Fluor, 24 h; series mostly up to 92.4 µM; note: nearly all actives have a fitted effect of over 50% in size
Results filed as inconclusive are left out. Activity calls are given as the source filed them. Calls come from the whole dose curve; as a rule, active = well fitted cell-killing curve with a large enough effect in the repeat runs; inconclusive = weak or mixed curves, or effect the other way; inactive = flat fitted curve, though single readings scatter.
Mark one answer only. Choices: active, inactive

Recorded results for 4 molecules are shown here.
{"molecule": "COc1ccccc1N=Nc1c(S(=O)(=O)O)cc2cc(S(=O)(=O)O)cc(NC(C)=O)c2c1O", "category.label": "active"}
{"molecule": "O=C(O)c1ccc(CO)o1", "category.label": "inactive"}
{"molecule": "CC1=NN(c2ccc(C(=O)O)cc2)C(=O)C1", "category.label": "inactive"}
{"molecule": "NCC1CCCC(CN)C1 (stereo not drawn)", "category.label": "inactive"}

Which outcome did this test record for the molecule CC(C)CCCCCOC(=O)CCCCC(=O)OCCCCCC(C)C ?
inactive

Which outcome did this test record for the molecule O=C(O)C(Cc1cc(I)c(O)c(I)c1)c1ccccc1 (stereo not drawn) ?
inactive

Which outcome did this test record for the molecule CO[Si](C)(OC)OC ?
inactive

Which outcome did this test record for the molecule C=CC(C)(O)CCCC(C)CCCC(C)CCCC(C)C (stereo not drawn) ?
inactive

Which outcome did this test record for the molecule c1cc[c]([Bi]([c]2ccccc2)[c]2ccccc2)cc1 ?
inactive

Which outcome did this test record for the molecule CCCCCCCCCCCC[N+](C)(C)CC(=O)[O-] ?
inactive

Which outcome did this test record for the molecule CC(CCO)CCc1ccccc1 (stereo not drawn) ?
inactive

Which outcome did this test record for the molecule CC(COc1ccc(C(C)(C)C)cc1)OS(=O)OCCCl (stereo not drawn) ?
active

Which outcome did this test record for the molecule CCCCC1C(=O)N(c2ccccc2)N(c2ccc(O)cc2)C1=O (stereo not drawn) ?
active
